assay: yeast display, Sf9 membrane polyspecificity reagent, FACS + sequencing; frameworks hold sequencing errors
Recorded Metric: polyreactivity (PSR sort gate)

QVQLVESGGGLVQAGGSLRLSCAASGRTFHAYVMGWYRQAPGKERELVADISSGGDTYADSVKGRFTISRDNAKNTVYLQMNSLKPEDTAVYYCAVDLIQDESGYWGQGTQVTVSS ... low polyreactivity
QVQLVESGGGLVQAGGSLRLTCAASGRTFSTYVMGWYRQAPGKEREFVAAISTGGGSTYYADSVKGRFTISRDNAKNTVYLQMNSLKPEDTAVYYCAAKRKIRGYGPYEFWGQGTQVTVSS ... high polyreactivity
QVQLVESGGGLVQAGGSLRLSCAASGSIFEGNAMGWYRQAPGKERELVAAISRRGGRTYYADSVKGRFTISRDNAKNTVYLQMNSLKPEDTAVYYCNALYFRDGRYQTYSDKFDYWGQGTQVTVSS ... high polyreactivity
QVQLVESGGGLVQAGGSLRLSCAASGRIFYRNAMGWYRQAPGKERELVAAITGSGGSTYYADSVKGRFTISRDNAKNTVYLQMNSLKPEDTAVYYCNKPYFLYRPLGTGMEYWGQGTHVTVSS ... high polyreactivity

Q) Form field: reported polyreactivity (PSR sort gate) of QVQLVESGGGLVQAGGSLRLSCAASGRIFNYYDMGWYRQAPGKEREFVAAISWRGTSTRYADSVKGRFTISRDNAKNTVYLQMNSLKPEDTAVYYCAADDYARRFSFKYDYWGQGTQVTVSS
A) high polyreactivity

Q) Okay, and QVQLVESGGGLVQAGGSLRLTCAASGRTFGPYAMGWYRPAPGKERELVAAIRYIDDSTFYADSVKGRFTISRDNAKNTVYLQMNSLKPEDTAVYYCAAQRRVVGRHGLSLIRYDYWGQGTQVTVSS ?
A) low polyreactivity

Q) Could you do the same for QVQLVESGGGLVQAGGSLRLSCAASGSTFYQNAMGWYRQAPGKERELVAAISSRGGSTYYADSVKGRFTISRDNAKNTVYLQMNSLKPEDTAVYYCNTGRGSEMDYWGQGTQVTVSS , please?
A) high polyreactivity

---

test: yeast display, Sf9 membrane polyspecificity reagent, FACS + sequencing; frameworks hold sequencing errors
Recorded Metric: polyreactivity (PSR sort gate)

Please review the entries below; each comes with its answer.
QVQLVESGGGLVQAGGSLRLSCAASGRIFSKYAMGLYRQAPEKERELVAAISGTGGSTYYADSVKGRFTISRDNSKNTVYLHMNSLKTEDTAVYYCAAEWYGRMYYWGQGTQVTVSS ... high polyreactivity
QVQLVESGGGLVQAGGSLRLSCAASGSTFVIYDMGWYRQAPGKERELVAAISYSGGSTYYADSVKGRFTISRDNAKNTVYLQMNSLKPEDTAVYYCNAGVLVLLYAYLPSELEYWGQGTQVTVSS ... low polyreactivity
QVQLVESGGGLVQAGGSLRLSCAASGIIFTVYAMGWYRQAPGKERELVAAITWSGGSTYYADSVKGRFTISRDNAKNTVYLQMNSLKPEDTAVYYCNKVGRVWDVETDGDYDYWGQGTQVTVSS ... low polyreactivity
QVQRVESGGGLVQAGGRLRLSCAASGFIFSYNAMGWYRQAPGKERELVAAISWSGVSTYYADSVMGRFTISRDNAKNTVYLQMNSLKPEDTAVYYCSAVRLRYATPVQFNPYIFGYWGQGTQVTVSS ... high polyreactivity

Q) Given QVQLVESGGGLVQAGGSLRLSCAASGRTFSRNAMAWYRQAPGKERELVAAISRRGVSTYYADSVKGRFTISRDNAKNTVYLQMNSLKPDDTAVFYCNTRGTYRYDYWGQGTQVTVSS , state its recorded polyreactivity (PSR sort gate).
A) low polyreactivity
